assay: yeast display, Sf9 membrane polyspecificity reagent, FACS + sequencing; frameworks hold sequencing errors
Measured attribute: polyreactivity (PSR sort gate)

Below, 4 sequences whose answers are already recorded.
- QVQLVESGGGLVQAGGSLRLSCAASGFIFTPNAMGWYRQAPGKERELVATISWRGTGTYYADSVKGRFTISRDTAKNTVYLQMNSLNPVDTAVYYCAVRFYSFHYYRIYTYSVTYDYWGQGTQVTVSS: high polyreactivity
- QVQLVESGGGLVQAGGSLRLSCAASGSILRPNVMGWYRQAPGKERELVARISSRGVNTYYADSVKGRFTLSRDNAKNTVYLQMHSLKPEDTAVFYCNARRAQYYWNRSAKYDYWGQGTQVTVSS: high polyreactivity
- QVQLVESGGGLVQAGGSIRLSCAASGITFYRNAMGWYRQAPGKEKELVAAITWNGGRTYYADSVKGRFTISRDNAKNTVYLQMNSLKPEDTAVYYCAAAYPTYRHYYWGQGTQVTVSS: low polyreactivity
- QVQLVESGGGLVQAGGSLRLSCDASGRIFYGYAMGWYRQAPGKERELVAAITYIGGTYYADSVKGRFTISRDNAKNTVYLQMNSMKPEDTAVYYCNALYRYLYRSGDFWGQGSQVTVSS: low polyreactivity

Next, consider the following sequence.
Query: polyreactivity (PSR sort gate); subject: "QVQLVESGGGLVQAGGSLRLSCAASGSIIVRYAMGWYRQAPGKERELVATITFRDTSTYYADSVKGRFTISRDNAKNTVYLQMNSLKPEDTAVYYCAAVRADLWDIARYDYWGQGTQVTVSS"
low polyreactivity

====

test: yeast display, Sf9 membrane polyspecificity reagent, FACS + sequencing; frameworks hold sequencing errors
Measured attribute: polyreactivity (PSR sort gate)

• QVQLVESGGGLVQAGGSLRLSCAASGFTFVSYAMGWYRQAPGKERELVAAITSNGGSTYYADSVKGRFTISRDNAKNTVYLQMNSLKPEDTAVYYCAAAGFWHGYFGYGYWGQGTQVTVSS = low polyreactivity
• QVQLVESGGGLVQAGGSLRLSCAASGRILRYKAMGWYRQAPGKDRELVAAMSSGGSTYADSVKGRFTISRDNAKNTVYLQMNSLKPEDTAVYYCAVQSTRRGPYSWPYGYWGQGTQVTVSS = high polyreactivity
• QVQLVESGGGLVQAGGSLRLSCAASGSIFGSYAMGWYRQAPGKEREFVAGIDQSGSSTYYADSVKGRFTISRDNAKNTVYLQMNSLKPEDTAVYYCNAVWYFYSTYRKYYYWGQGTQVTVSS = high polyreactivity
• QVQLVESGGGLVQAGGSLRLSCAASGYIYPPYAMRWYRQAPGKERELVATITRIGGSTYYADSVKGRLTMSRDNAKNTVDLQMNSLKPEDTAVYYCAARRDCGPYLSPENPAPMDYWGQGTQVTVSS = low polyreactivity

Next up:
What value of polyreactivity (PSR sort gate) has been reported for the following sequence? "QVQLVESGGGLVQAGGSHRLSCADSGRTFRTYAMGWYRQAPGKERELVAAITTSGSSTYYADSVKGRFTISRDNAKNTVYLQMNSLKPEDTAVYYCAAARSAIVPGYYSWGQGTQVTVSS"
low polyreactivity

====

test: yeast display, Sf9 membrane polyspecificity reagent, FACS + sequencing; frameworks hold sequencing errors
Measured attribute: polyreactivity (PSR sort gate)

The following sequences have reported results that may help.
* QVQLVESGGGLVQAGGSLRLSCAASGYTFTIYAMGWYRKAPGKERELVAAITGRGGRTNYADSVKGRFTISRDNAKNTVYLQMNSLKPEDTAVYYCNAVTKVVYHGPYGYDYWGQGTQVTVSS | high polyreactivity
* QVQLVESVVGLVQAGGSLRLSCAASGRTFRRYAMGWYRQAPGKERELVAAISRSGGSTYADSVKGRFTISRDNAKNTVYLQMNSLKPEDTAVYYCAAVTYSGSRFDYWGQGTQVTVSS | high polyreactivity
* QVQLVESGGGLVQAGGSLRLSCAASGFTFGAYAMGWYRQAPGTERELVAAISYRGGRTYYADSVKGRFTISRDNAKNTVYLQMNSLKPEDTAVYYGNTVYLVTWRVKGYYWGQGTQVTVSS | low polyreactivity
* QVQLVESGGGLVQAGGRLRLSCAASGITFTVFAMGWYRQAPGKERELVAAISQSGGSTYYADSVKGRFTISRDNAKNTVYLQMNILNPEDTAVYYCAKTLPSNGHYDYWGQGTQVTVSS | low polyreactivity
* QVQLVESGGGLVQAGGSLRLSCAASGYTFAGNAMGWYRQAPGKERELVAAISRSGGRTYYAVSVKGRFTISRDNAKNTVYLQMNSLKPEDTAVYYCAAYFPRTLFEFGYWGQGTQVTVSS | high polyreactivity

Name the reported polyreactivity (PSR sort gate) value associated with the sequence "QLQLVESGGGVVQAGGSLRLSCAASGGIFDRYAMGCDRQAPGKERELVAAITSGGSTNYADSVKGRFTISRDNAKNTVYLQMNSLQPEDTAVYYCNADLGILSGVAEGPTFREYDYWGQGTQVTVSS"
low polyreactivity

Further, for "QVQLVESGGGLVQAGGSLRLSCAASGITFYGNAMGWYRQAPGKERELVAAISSSGGTTYYADSVKGRFTISRDNAKNTVYLQMNSLKPEDTAVYYCNALHPVVYYGTYFNLRRYDYWGQGTQVTVSS" ?
low polyreactivity

Queued: "QVQLEESGGGLVQAGGSLRLSCAASGGTLRYYVMGSYRQAPGKERELVAAISWSGDSTYYADSVKGRFTISRDNAKNTVYLQMNSLKPEDTAVYYCAATYYLTYYYGQANHGYDYWGQGTQVTVSS"
low polyreactivity

Likewise for "QVQLVESGGGLVQAGGSLRLSCAASGGTLWVNTMGWYRQAPGKERELVAAISRRGGSTYYADSVKGRFTISRDNAKNTVYLQKNSLKPEDTAVYYCAKGYSSHYWWAYDSWGQGTQVTVSS" ?
high polyreactivity
